measurement-target: BRD4 bromodomain domain I [BRD4(1)] (Homo sapiens, UniProt O60885)
Construct: BRD4 bromodomain domain I [BRD4(1)]; purchased Cayman Chemicals
method-description: BRD4 bromodomain domain 1 inhibition assay (TR-FRET)
Type: binding
setup-conditions: screening concentration 10 μM
This section presents compounds with their documented inhibition at 10 µM values.

| compound-structure-string | result |
| --- | --- |
| CN1CCN(C2CCN(C(=O)c3ccc(Nc4cc5c(cn4)N(C)C(=O)c4ccccc4N5C)c(OCCF)c3)CC2)CC1 | 70 to 85% |
| CCOc1cc(C(=O)N2CC[C@H](O)C2)ccc1Nc1cc2c(cn1)N(C)C(=O)c1occc1N2C | > 85% |
| CCOc1cc(C(=O)N[C@H]2CC[C@H](O)CC2)ccc1Nc1cc2c(cn1)N(C)C(=O)c1ccccc1N2C | 70 to 85% |

Then this compound:
Query :: Fill in: inhibition at 10 µM on BRD4 bromodomain domain I [BRD4(1)] (Homo sapiens, UniProt O60885), entry CN1C(=O)c2ccccc2N(C)c2cc(NC3CCOCC3)ncc21
Result :: < 70%
